# ASSAY NAME: Study CL-017 plasma PK
# Format: in vivo, human
# EXPERIMENTAL CONTEXT: human, plasma, oral; 4 × 150 mg (600 mg), Day 1; Geometric Mean
QUANTITY MEASURED: Cmax

Lookup: So what does the record say about Cmax for O[C@@](Cn1cnnn1)(c1ccc(F)cc1F)C(F)(F)c1ccc(-c2ccc(OCC(F)(F)F)cc2)cn1 [Oteseconazole, oteseconazole] ?
Found: 1620 ng/mL

###

# ASSAY NAME: Study CL-004 plasma PK
# Format: in vivo, human
# EXPERIMENTAL CONTEXT: human, plasma, 300 mg, 300 mg QD treatment group
QUANTITY MEASURED: concentration at 168 day
Could you kindly put the unit after your number?

Lookup: Which concentration at 168 day value belongs to `O[C@@](Cn1cnnn1)(c1ccc(F)cc1F)C(F)(F)c1ccc(-c2ccc(OCC(F)(F)F)cc2)cn1` ?
Found: 127 ng/mL

###

# ASSAY NAME: Study CL-017 plasma PK
# Type: in vivo, human
# EXPERIMENTAL CONTEXT: human, plasma, oral, 450 mg, Day 2, 8 hours postdose; read-out: mean (SD) plasma concentration
# Experimental: Oteseconazole mean (SD) plasma concentration during the intense PK sampling period on Day 1 peaked at 4 hours postdose (1425.8 [672.05] μg/L) and decreased slightly by 8 hours postdose (1301.06 [782.76] μg/L). […] Over the period of Day 14 to Week 50, oteseconazole plasma concentrations were measured at Day 14, Week 14 (end of dosing), and Week 50 (end of follow-up period). […]
QUANTITY MEASURED: concentration at 8 h (ng/mL)
Could you give me the number in ng/mL? Just the number is fine.

Lookup: What does the record list as concentration at 8 h for O[C@@](Cn1cnnn1)(c1ccc(F)cc1F)C(F)(F)c1ccc(-c2ccc(OCC(F)(F)F)cc2)cn1 [Oteseconazole, oteseconazole] ?
Found: 1560

###

# ASSAY NAME: Study CL-007 DDI and PKE cohorts, plasma PK
# Format: in vivo
# Set-up: concentration or dose not given beside the values
# EXPERIMENTAL CONTEXT: human, PKE Cohort, Day 1, geometric mean
QUANTITY MEASURED: AUC(0-inf) (ng·h/mL)
Numbers only; they are read as ng·h/mL.

Lookup: I'd like to know its AUC(0-inf). The molecule in question is `O[C@@](Cn1cnnn1)(c1ccc(F)cc1F)C(F)(F)c1ccc(-c2ccc(OCC(F)(F)F)cc2)cn1`
Found: 57300

###

# ASSAY NAME: Study CL-005 in subjects with onychomycosis, plasma PK
# Type: in vivo
# EXPERIMENTAL CONTEXT: human, after 24 weeks, 600 mg 24-week treatment group, read-out: plasma exposure
QUANTITY MEASURED: concentration at 24 weeks (ng/mL)
Give a bare numeral; the unit ng/mL is implied.

Lookup: Request the reported concentration at 24 weeks associated with `O[C@@](Cn1cnnn1)(c1ccc(F)cc1F)C(F)(F)c1ccc(-c2ccc(OCC(F)(F)F)cc2)cn1`
Found: 15600

###

# ASSAY NAME: Study CL-005 in subjects with onychomycosis, plasma PK
# Type: in vivo
# EXPERIMENTAL CONTEXT: human, Day 14, Low Dose (300 mg), 12 weeks
QUANTITY MEASURED: Tmax (h)
Output spec: scalar in h, unitless text.

Lookup: Need Tmax, item `O[C@@](Cn1cnnn1)(c1ccc(F)cc1F)C(F)(F)c1ccc(-c2ccc(OCC(F)(F)F)cc2)cn1`
Found: 5

###

# ASSAY NAME: Study CL-001 single-dose escalation in healthy subjects, plasma PK
# Format: in vivo, human
# EXPERIMENTAL CONTEXT: both sexes, human, plasma, po, 20 mg, Cohort 3, single oral 20 mg, fasted; mean, N = 5; read-out: Vz/F
QUANTITY MEASURED: Vd/F
Put your answer as a value accompanied by its unit after it.

Lookup: Would you kindly share the measured Vd/F for O[C@@](Cn1cnnn1)(c1ccc(F)cc1F)C(F)(F)c1ccc(-c2ccc(OCC(F)(F)F)cc2)cn1 [Oteseconazole, oteseconazole] ?
Found: 696 L

###

# ASSAY NAME: Study CL-006 plasma PK
# Format: in vivo, human
# EXPERIMENTAL CONTEXT: human, plasma, 150 mg, Day 7, 150 mg; 24 weeks
QUANTITY MEASURED: Cmax
Dear colleague, please send the value followed by its unit.

Lookup: Item under review: O[C@@](Cn1cnnn1)(c1ccc(F)cc1F)C(F)(F)c1ccc(-c2ccc(OCC(F)(F)F)cc2)cn1 [Oteseconazole, oteseconazole] . Reported Cmax?
Found: 1800 ng/mL

###

# ASSAY NAME: Study CL-001 single-dose escalation in healthy subjects, plasma PK
# Assay type: in vivo, human
# EXPERIMENTAL CONTEXT: both sexes, human, plasma, po, 80 mg, Cohort 5, single oral 80 mg, fasted; mean
QUANTITY MEASURED: AUC(0-inf) (ng·h/mL)
Numbers only; they are read as ng·h/mL.

Lookup: What measured AUC(0-inf) goes with O[C@@](Cn1cnnn1)(c1ccc(F)cc1F)C(F)(F)c1ccc(-c2ccc(OCC(F)(F)F)cc2)cn1 [Oteseconazole, oteseconazole] ?
Found: 84600

###

# ASSAY NAME: Study CL-004 plasma PK
# Format: in vivo, human
# EXPERIMENTAL CONTEXT: human, plasma, 600 mg, 600 mg QD treatment group; read-out: median t1/2 (converted)
QUANTITY MEASURED: half-life (days)
Unit days implied. Number only.

Lookup: Consider the compound `O[C@@](Cn1cnnn1)(c1ccc(F)cc1F)C(F)(F)c1ccc(-c2ccc(OCC(F)(F)F)cc2)cn1` and give its measured half-life.
Found: 133

###

# ASSAY NAME: Study CL-001 single-dose escalation in healthy subjects, plasma PK
# Assay type: in vivo, human
# EXPERIMENTAL CONTEXT: both sexes, human, plasma, po, 160 mg, Cohort 6, single oral 160 mg, fasted; median; read-out: Tmax
QUANTITY MEASURED: Tmax
Report as: number unit

Lookup: Fill in the blank: the reported Tmax of `O[C@@](Cn1cnnn1)(c1ccc(F)cc1F)C(F)(F)c1ccc(-c2ccc(OCC(F)(F)F)cc2)cn1` is ____.
Found: 6 h

###

# ASSAY NAME: Study CL-001 single-dose escalation in healthy subjects, plasma PK
# Assay type: in vivo, human
# EXPERIMENTAL CONTEXT: both sexes, human, plasma, po, 20 mg, Cohort 3, single oral 20 mg, fasted; N = 5
QUANTITY MEASURED: half-life
Respond with a number, then the unit of measure.

Lookup: Query (compound): O[C@@](Cn1cnnn1)(c1ccc(F)cc1F)C(F)(F)c1ccc(-c2ccc(OCC(F)(F)F)cc2)cn1 [Oteseconazole, oteseconazole] ; field requested: half-life
Found: 16.4 days

###

# ASSAY NAME: Study CL-007 DDI and PKE cohorts, plasma PK
# Type: in vivo
# Design: concentration or dose not given beside the values
# EXPERIMENTAL CONTEXT: human, DDI Cohort, Day 3, geometric mean
QUANTITY MEASURED: AUC(0-inf) (ng·h/mL)
Report the figure in ng·h/mL without appending any unit label.

Lookup: Can you look up the measured AUC(0-inf) of `O[C@@](Cn1cnnn1)(c1ccc(F)cc1F)C(F)(F)c1ccc(-c2ccc(OCC(F)(F)F)cc2)cn1` for me?
Found: 49400

###

# ASSAY NAME: Study CL-001 single-dose escalation in healthy subjects, plasma PK
# Assay type: in vivo, human
# EXPERIMENTAL CONTEXT: both sexes, human, plasma, po, 160 mg, Cohort 6, single oral 160 mg, fasted; mean; read-out: Vz/F
QUANTITY MEASURED: Vd/F (L)
Give your result in L as a bare value.

Lookup: Requested read-out: Vd/F. Entry: `O[C@@](Cn1cnnn1)(c1ccc(F)cc1F)C(F)(F)c1ccc(-c2ccc(OCC(F)(F)F)cc2)cn1`
Found: 1400

###

# ASSAY NAME: Study CL-017 plasma PK
# Type: in vivo, human
# EXPERIMENTAL CONTEXT: human, plasma, oral, 600 mg, 600 mg dose on Day 1, as given in text; read-out: AUC0-24
QUANTITY MEASURED: AUC(0-t) (ng·h/mL)
Reply numerically in ng·h/mL, unit not repeated.

Lookup: Given the entry O[C@@](Cn1cnnn1)(c1ccc(F)cc1F)C(F)(F)c1ccc(-c2ccc(OCC(F)(F)F)cc2)cn1 [Oteseconazole, oteseconazole] , report its measured AUC(0-t).
Found: 20600

###

# ASSAY NAME: Study CL-017 plasma PK
# Format: in vivo, human
# EXPERIMENTAL CONTEXT: human, plasma, oral, 600 mg, Day 1, 4 hours postdose; read-out: mean (SD) plasma concentration
QUANTITY MEASURED: concentration at 4 h

Lookup: Fill blank: measured concentration at 4 h of the molecule `O[C@@](Cn1cnnn1)(c1ccc(F)cc1F)C(F)(F)c1ccc(-c2ccc(OCC(F)(F)F)cc2)cn1` is ____.
Found: 1430 ng/mL
